Documented Fold change to WT across a set of binders
- target under test: T1, human PD-L1 (full-length, expressed on CHO cells) (human, UniProt Q9NZQ7 19-290)
- T1 construct: also called huPD-L1; CD274
- T1 sequence (Q9NZQ7 19-290): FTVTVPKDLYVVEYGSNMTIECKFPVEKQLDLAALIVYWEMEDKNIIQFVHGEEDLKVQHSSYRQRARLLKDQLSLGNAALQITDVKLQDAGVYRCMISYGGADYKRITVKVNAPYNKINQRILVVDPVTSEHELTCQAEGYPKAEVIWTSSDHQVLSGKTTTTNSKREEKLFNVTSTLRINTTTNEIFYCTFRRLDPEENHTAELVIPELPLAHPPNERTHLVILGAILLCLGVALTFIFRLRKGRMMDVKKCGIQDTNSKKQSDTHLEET
- method description: flow cytometry MFI at 33.3 nM relative to WT CD80 ECD-Fc (R&D), CHO/huPD-L1 cells
Enter your answer as a number in fold; do not include the unit.

Look over these answered cases.
Lab book: Fold change to WT of variant CD80 IgV-Fc A26E/Q33R/E35D/M47L/L85Q (Fc fusion, not shown: a dimerising Fc or GST) VIHVTKEVKEVATLSCGHNVSVEELEQTRIYWRKDKKMVLTMMSGDLNIWPEYKNRTIFDITNNLSIVILALRPSDEGTYECVVQKYEKDAFKREHLAEVTLSVKAD noted as 10.3

Lab book: Fold change to WT of variant CD80 IgV-Fc H18L/V22A/E35D/M47L/N48T/L85Q (Fc fusion, not shown: a dimerising Fc or GST) VIHVTKEVKEVATLSCGLNVSAEELAQTRIYWQKDKKMVLTMMSGDLTIWPEYKNRTIFDITNNLSIVILALRPSDEGTYECVVQKYEKDAFKREHLAEVTLSVKAD noted as 12.3

Next:
Lab book: Fold change to WT of variant CD80 IgV-Fc Q33L/E35D/M47I/L85Q (Fc fusion, not shown: a dimerising Fc or GST) VIHVTKEVKEVATLSCGHNVSVEELAQTRIYWLKDKKMVLTMMSGDINIWPEYKNRTIFDITNNLSIVILALRPSDEGTYECVVQKYEKDAFKREHLAEVTLSVKAD noted as 8.05

Lab book: Fold change to WT of variant CD80 IgV-Fc H18Y/E35D/M47L (Fc fusion, not shown: a dimerising Fc or GST) VIHVTKEVKEVATLSCGYNVSVEELAQTRIYWQKDKKMVLTMMSGDLNIWPEYKNRTIFDITNNLSIVILALRPSDEGTYECVVLKYEKDAFKREHLAEVTLSVKAD noted as 5.56

Lab book: Fold change to WT of variant CD80 IgV-Fc A26E/E35D/M43T/M47L/L85Q/R94Q (Fc fusion, not shown: a dimerising Fc or GST) VIHVTKEVKEVATLSCGHNVSVEELEQTRIYWQKDKKMVLTMTSGDLNIWPEYKNRTIFDITNNLSIVILALRPSDEGTYECVVQKYEKDAFKQEHLAEVTLSVKAD noted as 8.57

Lab book: Fold change to WT of variant CD80 IgV-Fc E7D/E35D/M47I/L97Q (Fc fusion, not shown: a dimerising Fc or GST) VIHVTKDVKEVATLSCGHNVSVEELAQTRIYWQKDKKMVLTMMSGDINIWPEYKNRTIFDITNNLSIVILALRPSDEGTYECVVLKYEKDAFKREHQAEVTLSVKAD noted as 1.84

Lab book: Fold change to WT of variant CD80 IgV-Fc Q33K/E35D/D46V/L85Q (Fc fusion, not shown: a dimerising Fc or GST) VIHVTKEVKEVATLSCGHNVSVEELAQTRIYWKKDKKMVLTMMSGVMNIWPEYKNRTIFDITNNLSIVILALRPSDEGTYECVVQKYEKDAFKREHLAEVTLSVKAD noted as 3.36

Lab book: Fold change to WT of variant CD80 IgV-Fc A26E/Q33L/E35D/M47L/L85Q (Fc fusion, not shown: a dimerising Fc or GST) VIHVTKEVKEVATLSCGHNVSVEELEQTRIYWLKDKKMVLTMMSGDLNIWPEYKNRTIFDITNNLSIVILALRPSDEGTYECVVQKYEKDAFKREHLAEVTLSVKAD noted as 7.89
